System: ERN1;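 note: KINOMEscan kinase panel screen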
Test Conditions: concentration: 1 μM, replicates: in singlicate; n = 1
%Inh below 4% gives not satisfied; %Inh at or above it gives satisfied.

O=c1cc(N2CCOCC2)nc2n(Cc3cccc(F)c3)ccn12: not satisfied
Cl.Oc1cccc(Nc2ccnc3cc(-c4ccncc4)ccc23)c1: satisfied

# bool: %Inh of `O=C1Cc2cc(Nc3nc(NCc4cccc(S(=O)(=O)C(F)(F)F)c4)ncc3C(F)(F)F)ccc2N1` >= 4% not satisfied

What do we get for `CSc1ccc(-c2cc3ncnc(SCC(=O)O)c3s2)cc1` ? not satisfied

Try the compound `O=C(Nc1n[nH]c2cc(-c3cccc(F)c3)ccc12)C1CC1` satisfied

For `O=c1cc(N2CCOCC2)nc2n(Cc3cccc(C(F)(F)F)c3)ccn12` then? satisfied

Same question, `Cc1c2ccc(N(C)c3ccnc(Nc4cccc(S(N)(=O)=O)c4)n3)cc2nn1Cc1ccccc1.Cl.Cl` this time not satisfied
